Biological target: MftR S67W (Mycolicibacterium smegmatis, UniProt A0QSB5, S67W)
Sequence (A0QSB5 1-200, stated change not applied): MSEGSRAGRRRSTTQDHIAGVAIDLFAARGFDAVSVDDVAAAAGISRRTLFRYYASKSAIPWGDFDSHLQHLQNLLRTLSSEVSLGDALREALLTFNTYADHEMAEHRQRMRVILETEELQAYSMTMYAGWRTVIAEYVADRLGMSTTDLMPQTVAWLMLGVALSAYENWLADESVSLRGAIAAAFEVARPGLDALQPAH
Test: ITC binding of oleoyl-CoA to MftR variant
Measured Metric: pKd
pKd here: minus log base 10 of the concentration, concentration in moles per litre.

Task: Quote MftR S67W (Mycolicibacterium smegmatis, UniProt A0QSB5, S67W) pKd for entry `CCCCCCCC/C=C\CCCCCCCC(=O)SCCNC(=O)CCNC(=O)[C@H](O)C(C)(C)COP(=O)(O)OP(=O)(O)OC[C@H]1O[C@@H](n2cnc3c(N)ncnc32)[C@H](O)[C@@H]1OP(=O)(O)O` .
Output: 5.08

###

Molecular target: MftR Q15A (Mycolicibacterium smegmatis, UniProt A0QSB5, Q15A)
Sequence (A0QSB5 1-200, stated change not applied): as above
Assay: ITC binding of oleoyl-CoA to MftR variant
Measured Metric: pKd
pKd here: minus log base 10 of the concentration, concentration in moles per litre.

Task: Look up and report measured pKd for this entry: CCCCCCCC/C=C\CCCCCCCC(=O)SCCNC(=O)CCNC(=O)[C@H](O)C(C)(C)COP(=O)(O)OP(=O)(O)OC[C@H]1O[C@@H](n2cnc3c(N)ncnc32)[C@H](O)[C@@H]1OP(=O)(O)O [oleoyl-CoA]
Output: 5.70
